test system: c-Abl (mouse); assay: phosphorylation enrichment, bacterial display (enrichment ratio); higher = better substrate or ligand; peptides without Tyr show the background;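 note: 11-residue human phosphosite peptides and single-mutation variants displayed on the E. coli surface, counted by deep sequencing, each peptide's frequency after selection divided by its frequency in the unselected input library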;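 note: frequency after pTyr selection over input frequency; kinase dosed for 20-30% of maximal phosphorylation in three min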

Biosequence	phosphorylation enrichment
RASSSYRETPS [SORBS1_Y79]	0.757
DLDTDYGSGYP [RNASEH2A_Y206]	1.21
DEEDFYQGSME [ASCC1_Y36]	0.889
YEEDSYSHVMA [FDPS_Y388_I391V]	0.696
AAARPYHIQKW [ACSBG1_Y677]	0.673
FGMQLYQKFMH [GRB14_Y347_N349K_YF]	0.773
SKEPFYVRCIK [MYO1D_Y586_YF]	0.727
DDEESYENVPR [FCRL3_Y722_N721S]	0.687
FSAGTYPRMEE [SYCN_Y108_L111M]	0.501
CLMILHRLKER [PTPRR_Y249_Y249H]	0.548
LMIEEYLTKEP [BAG3_Y457_L462P]	2.45
SVTCTDSPALN [TP53_Y126_Y126D]	0.847
VAMDDYLKNVM [LRRK2_Y707]	0.659
QMVRMYASSFM [AVPR2_Y124_G122R_YF]	0.745

* * *

phosphorylation enrichment reference
molecular target: EPHB1 (UniProt P54762); test: phosphorylation enrichment, bacterial display (enrichment ratio); higher = better substrate or ligand; peptides without Tyr show the background
Sequence (P54762 whole entry, looked up): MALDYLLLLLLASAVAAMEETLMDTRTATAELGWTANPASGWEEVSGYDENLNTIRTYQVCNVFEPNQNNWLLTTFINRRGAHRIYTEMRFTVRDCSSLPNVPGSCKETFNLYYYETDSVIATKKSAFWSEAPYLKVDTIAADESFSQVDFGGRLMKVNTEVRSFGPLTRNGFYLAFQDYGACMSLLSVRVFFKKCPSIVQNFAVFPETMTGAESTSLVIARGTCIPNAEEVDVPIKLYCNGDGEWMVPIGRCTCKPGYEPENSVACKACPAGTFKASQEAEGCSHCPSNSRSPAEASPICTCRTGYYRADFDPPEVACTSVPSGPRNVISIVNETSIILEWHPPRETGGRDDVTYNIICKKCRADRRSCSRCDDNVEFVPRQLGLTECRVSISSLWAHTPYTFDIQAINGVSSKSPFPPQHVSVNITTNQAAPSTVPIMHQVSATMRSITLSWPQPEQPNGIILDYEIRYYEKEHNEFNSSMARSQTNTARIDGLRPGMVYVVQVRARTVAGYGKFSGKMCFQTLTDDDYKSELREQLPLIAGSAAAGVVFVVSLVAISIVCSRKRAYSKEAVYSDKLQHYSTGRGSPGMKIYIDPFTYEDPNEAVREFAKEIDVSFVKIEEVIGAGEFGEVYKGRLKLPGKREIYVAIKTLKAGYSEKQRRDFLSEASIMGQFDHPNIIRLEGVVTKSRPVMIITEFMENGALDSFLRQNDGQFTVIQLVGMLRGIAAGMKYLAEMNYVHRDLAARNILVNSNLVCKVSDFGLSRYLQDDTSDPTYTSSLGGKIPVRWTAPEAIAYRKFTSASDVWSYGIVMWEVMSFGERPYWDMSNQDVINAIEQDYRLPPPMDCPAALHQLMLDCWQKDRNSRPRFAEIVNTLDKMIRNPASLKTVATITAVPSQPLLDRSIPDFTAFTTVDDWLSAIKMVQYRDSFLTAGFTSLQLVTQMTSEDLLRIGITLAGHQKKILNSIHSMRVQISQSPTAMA
Reported Property: phosphorylation enrichment

Biosequence	Study Target	Reported Property	Result
PIPAAYNKFDQ [CDC73_Y290_R292K_YF]	EPHB1 (UniProt P54762)	phosphorylation enrichment	0.687
GRPMDYHVSIT [OTOF_Y254_Q255H]	EPHB1 (UniProt P54762)	phosphorylation enrichment	0.532
EHAGEYGAEAL [HBA1_Y25_A20E]	EPHB1 (UniProt P54762)	phosphorylation enrichment	0.423
FDRREYSRFEK [ITGB7_Y758_YF]	EPHB1 (UniProt P54762)	phosphorylation enrichment	0.415
EEQKRYFNAMK [SCN5A_Y1494_K1493R_YF]	EPHB1 (UniProt P54762)	phosphorylation enrichment	0.353
QRRFLYFFSFL [PTEN_Y176_V175L_YF]	EPHB1 (UniProt P54762)	phosphorylation enrichment	0.761
RRESQYQENRG [LRCH3_Y354]	EPHB1 (UniProt P54762)	phosphorylation enrichment	0.431
RDSQIYAVDYE [MRPS34_Y34_L33I]	EPHB1 (UniProt P54762)	phosphorylation enrichment	2.44
HELFVYKCDEN [DOCK3_Y548_YF]	EPHB1 (UniProt P54762)	phosphorylation enrichment	1.13
KYRREYILSLE [GPC3_Y299_W296R]	EPHB1 (UniProt P54762)	phosphorylation enrichment	0.364
SRVNKYSTAFG [GJB3_Y16_G12R]	EPHB1 (UniProt P54762)	phosphorylation enrichment	0.426
RFLERYIFNRE [HLA-DPB1_Y57_YF]	EPHB1 (UniProt P54762)	phosphorylation enrichment	0.324
DKMEAYNIDET [TEKT4_Y210]	EPHB1 (UniProt P54762)	phosphorylation enrichment	0.604
LLVVVYKFRCF [PSEN1_Y154_L153V_YF]	EPHB1 (UniProt P54762)	phosphorylation enrichment	0.446

* * *

biological target: EPHB2 (UniProt P29323); assay: phosphorylation enrichment, bacterial display (enrichment ratio); higher = better substrate or ligand; peptides without Tyr show the background
Sequence (P29323 whole entry, looked up): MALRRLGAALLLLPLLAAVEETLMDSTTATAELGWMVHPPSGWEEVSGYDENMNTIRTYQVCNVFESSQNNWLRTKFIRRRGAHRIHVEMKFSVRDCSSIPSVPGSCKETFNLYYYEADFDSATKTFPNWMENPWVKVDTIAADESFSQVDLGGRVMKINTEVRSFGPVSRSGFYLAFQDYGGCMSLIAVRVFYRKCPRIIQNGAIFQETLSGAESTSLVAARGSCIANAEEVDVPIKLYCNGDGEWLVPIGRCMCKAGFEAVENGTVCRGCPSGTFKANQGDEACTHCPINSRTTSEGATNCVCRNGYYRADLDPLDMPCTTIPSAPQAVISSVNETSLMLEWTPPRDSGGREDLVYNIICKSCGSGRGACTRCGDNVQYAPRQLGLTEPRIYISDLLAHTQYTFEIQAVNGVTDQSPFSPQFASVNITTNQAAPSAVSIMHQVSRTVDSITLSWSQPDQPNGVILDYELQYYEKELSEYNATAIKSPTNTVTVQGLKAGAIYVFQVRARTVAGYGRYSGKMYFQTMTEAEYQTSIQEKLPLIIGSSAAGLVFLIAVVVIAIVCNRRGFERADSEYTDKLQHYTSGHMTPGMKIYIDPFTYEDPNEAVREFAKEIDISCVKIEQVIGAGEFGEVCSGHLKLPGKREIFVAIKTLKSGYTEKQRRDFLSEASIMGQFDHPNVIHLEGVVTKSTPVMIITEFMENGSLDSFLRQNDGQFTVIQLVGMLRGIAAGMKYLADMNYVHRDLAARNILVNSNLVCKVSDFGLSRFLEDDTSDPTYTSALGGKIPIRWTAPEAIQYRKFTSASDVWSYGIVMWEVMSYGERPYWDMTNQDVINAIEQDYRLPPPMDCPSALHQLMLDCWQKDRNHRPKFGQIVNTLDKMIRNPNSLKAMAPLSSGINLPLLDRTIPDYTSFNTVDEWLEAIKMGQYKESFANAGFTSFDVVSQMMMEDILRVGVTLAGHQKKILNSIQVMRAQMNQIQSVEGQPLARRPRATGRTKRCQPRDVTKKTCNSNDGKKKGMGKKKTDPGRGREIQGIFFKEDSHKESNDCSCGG
Assign rule met to entries whose phosphorylation enrichment meets or exceeds 0.5; assign rule not met to the rest.

Biosequence	Assigned Class
HLLRIYYDITD [MMP27_Y307_W304L]	rule met
KERNQYGGVMV [MMP21_Y347_E349G]	rule not met
HKDNNYISMWF [PAPOLG_Y432_V433I]	rule met
SLKAFYGEDAK [ALDH3A1_Y272_E270A]	rule not met
EDGFAYVPLKD [PRIM2_Y208]	rule met
SSSPTYPDLPF [GLI3_Y168]	rule met
